Entries and their peptide exchange yield values follow.
Target: HLA-A*02 (human)
Assay: UV-exchange b2m ELISA

A selection of reference data follows.
Item under review: `ALLGTKILL` . Reported peptide exchange yield?
50 to 75%

Also `SQFPLPLAV` , if possible.
20 to 49%

Also need `TLTSLLAQA` , thanks.
50 to 75%

Others:
Given the binder `ILFHGVFYA` , what is its reported peptide exchange yield?
50 to 75%

Cool, now `VTSNSGILGV`
50 to 75%

Same for `VQLDSIEDLEV`
50 to 75%

Now the same for `KLIFSVEAV`
50 to 75%

Also `FVDPNTQEKV` ?
20 to 49%

Param item: `ALLERGELFV`
50 to 75%

And what about the binder `FLDKVLVAA` ?
50 to 75%

Let us now turn to `LLLPAVPVGA`
50 to 75%

Try this binder too: `VLLDIQEVFQI`
50 to 75%

Then what about the binder `YLLPLLPAL` ?
50 to 75%

Would you kindly repeat that for `FLQDLEQRL` ?
50 to 75%

Queued: `SLFPDSLIV`
20 to 49%

Repeat for the following binder: `QVIEDSTGV`
20 to 49%
